B1: ADAMTSL2 (parent)
chain: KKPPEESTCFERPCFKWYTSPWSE

Variants of: B1
method.summary: protein stability index of a GFP-peptide fusion (GPS, HEK-293T) (PSI 1-6); higher = more stable;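 also: lentivirally expressed fusions sorted by FACS into six bins by GFP to DsRed ratio, PSI derived from sequencing read proportions per bin multiplied by bin number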
measurement.conditions: c terminus: a fixed tail appended
result.type: protein stability index

Entry under test: "T19A" . Its protein stability index was 2.28

# protein stability index (variant: "Y18T" ) is 3

Entry "E24T" — recorded protein stability index = 1.97

Entry "R12E" — recorded protein stability index = 2.95

Per the records, this variant ( "E11F" ) has protein stability index equal to 2.19

The variant listed as "K2E" shows protein stability index equal to 2.79

***
Input "S7E" . Output protein stability index: 2.47

Sure, the documented protein stability index for "K2Y" is 2.36

For "P4M" the variant record lists protein stability index as 2.29

For record "K16L" the listed protein stability index is 2.51

"W22Y" yielded protein stability index of 3.05

Noted for "S7T" : its protein stability index reads 2.39

Per the record, "K16A" has protein stability index of 2.62

protein stability index reading for "E11D" : 2.38

protein stability index for "E24Y" is 2.11

Form field protein stability index, entry "C14V" : 2.58

For "T8G" the variant record lists protein stability index as 2.37

The variant "E6G" showed protein stability index equal to 2.57

The recorded protein stability index for entry "E5M" equals 1.47

Looking up "T19C" , I found its protein stability index recorded as 2.13

"F10V" has a reported protein stability index of 2.86

Looking up "T19E" , I found its protein stability index recorded as 3.38

The variant listed as "E24W" has a reported protein stability index of 2.09

What the record says about "K16D" : protein stability index is 3.04

Please fill in: protein stability index reported for "P21G" = 2.16

// protein stability index lookup, variant = "C14P" , result: 3.09

Reference source: the supplement of paper PMC10567573
